The measured values listed here are drawn from the supplement of paper PMC10065799.

# Study system: Fyn (UniProt P06241)
# Sequence (P06241 whole entry, looked up): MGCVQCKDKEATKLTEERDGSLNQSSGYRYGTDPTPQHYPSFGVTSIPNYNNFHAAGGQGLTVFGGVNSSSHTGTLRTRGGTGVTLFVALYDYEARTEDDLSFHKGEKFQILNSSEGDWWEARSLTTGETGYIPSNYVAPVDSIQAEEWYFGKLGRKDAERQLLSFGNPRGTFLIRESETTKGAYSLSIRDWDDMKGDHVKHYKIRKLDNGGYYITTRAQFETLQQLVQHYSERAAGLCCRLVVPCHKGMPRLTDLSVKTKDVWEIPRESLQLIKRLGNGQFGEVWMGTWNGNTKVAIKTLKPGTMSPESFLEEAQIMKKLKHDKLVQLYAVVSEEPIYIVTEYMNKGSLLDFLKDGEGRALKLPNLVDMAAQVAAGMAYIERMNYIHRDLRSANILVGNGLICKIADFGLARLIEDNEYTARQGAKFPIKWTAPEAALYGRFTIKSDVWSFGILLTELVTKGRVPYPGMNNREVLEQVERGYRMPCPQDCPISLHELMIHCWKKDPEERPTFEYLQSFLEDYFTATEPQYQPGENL
# Assay name: phosphorylation enrichment, bacterial display (enrichment ratio); higher = better substrate or ligand; peptides without Tyr show the background;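 further: 11-residue human phosphosite peptides and single-mutation variants displayed on the E. coli surface, counted by deep sequencing, each peptide's frequency after selection divided by its frequency in the unselected input library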;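 further: frequency after pTyr selection over input frequency; kinase dosed for 20-30% of maximal phosphorylation in three min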
Quantity kind: phosphorylation enrichment
Reply: number alone, nothing else.

Reported phosphorylation enrichment for ISHVAYCVLGK [TRRAP_Y892_R893C] : what is it?
0.675

Given EMTRNYIIFIE [BCO2_Y294_G289E] , state its recorded phosphorylation enrichment.
0.586

// returns reported phosphorylation enrichment for input HKLSSYEYDFE [BTK_Y40_Y39S]
0.72

Form field: reported phosphorylation enrichment of DYYDLYGGEKK [PTPN11_Y66_F71K]
4.04

Given KVMANYVFKAG [MAML2_Y513_M514V_YF] , state its recorded phosphorylation enrichment.
0.382

Entry DGKFSYLKVGH [GRM3_Y480_G475D_YF] has what phosphorylation enrichment?
0.33

Reported phosphorylation enrichment, sequence KKMEVYQSIAD [MYBPC3_Y548_L545M] : ____
0.943

So what's the measured phosphorylation enrichment for this one? IQTDGDRAPEA [UHMK1_Y197_Y197D]
0.466

---

# Study system: Hck (UniProt P08631)
# Sequence (P08631 whole entry, looked up): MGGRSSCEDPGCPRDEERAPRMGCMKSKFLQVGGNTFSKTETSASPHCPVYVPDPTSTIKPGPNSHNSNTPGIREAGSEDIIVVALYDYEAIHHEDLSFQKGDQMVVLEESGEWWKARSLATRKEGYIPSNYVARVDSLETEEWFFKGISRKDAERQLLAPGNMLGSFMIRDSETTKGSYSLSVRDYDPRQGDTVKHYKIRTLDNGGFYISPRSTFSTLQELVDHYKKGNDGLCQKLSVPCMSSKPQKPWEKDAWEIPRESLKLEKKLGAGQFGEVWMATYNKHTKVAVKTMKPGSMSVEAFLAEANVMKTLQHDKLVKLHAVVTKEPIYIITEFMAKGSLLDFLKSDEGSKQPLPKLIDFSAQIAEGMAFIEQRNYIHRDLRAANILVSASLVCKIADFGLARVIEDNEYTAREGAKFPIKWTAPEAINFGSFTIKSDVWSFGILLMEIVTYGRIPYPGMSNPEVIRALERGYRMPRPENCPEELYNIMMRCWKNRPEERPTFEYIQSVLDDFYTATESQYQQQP
# Assay name: phosphorylation enrichment, bacterial display (enrichment ratio); higher = better substrate or ligand; peptides without Tyr show the background
In this section we review reported phosphorylation enrichment values for a set of sequences.
Could you keep your reply to the number by itself?

SFDLDYDSVQP [MYC_Y16_N11S_YF]    0.688
AEPNIYQEKLS [USP54_Y1233_D1231N]    0.778
NSRFTYKLEVK [USH2A_Y3747_YF]    0.475
SSLEDYVRETN [GIMAP6_Y176_G171S]    0.431
TGDVQYRSSVR [FREM2_Y2158]    0.357

Which phosphorylation enrichment is reported for this sequence? LLFRVYGLESL [INSR_Y94]
0.465

Record request: phosphorylation enrichment value, item WQQQSYLDSGS [CTNNB1_Y30_I35S]
0.45

Which value of phosphorylation enrichment has been reported for ARKCKYFKKHE [NFIX_Y40_R38C] in the records?
0.48

Tell me the measured phosphorylation enrichment of NGTVTYAIVAG [CDH23_Y1672] , please.
1.09

Find the recorded phosphorylation enrichment belonging to EPFKVYRIVPE [IRF8_Y110_YF] and report it.
0.4

Please give the measured phosphorylation enrichment for this sequence: EKLQKYFRKNP [EHHADH_Y682_Q685K_YF]
0.646

What measured phosphorylation enrichment goes with FFRKFYNKSED [RYR1_Y4864] ?
0.41

Tell me the measured phosphorylation enrichment of SVTCTYSPALK [TP53_Y126_N131K] , please.
0.498

Entry VGIMLYGVDSR [PKD1_Y3143] has what phosphorylation enrichment?
0.61

Could you tell me which phosphorylation enrichment is on file for YSNVLYRPRGA [TMIGD2_Y197] ?
0.651

Which phosphorylation enrichment value is on record for QSLEPYTKQQL [STAT3_Y640_V637L] ?
0.459

// returns reported phosphorylation enrichment for input GGGGSYNVFGN [HNRNPA1_Y312_D314V]
0.424

So what does the record say about phosphorylation enrichment for VAMELYVFGGV [GAN_Y471] ?
0.535

Can you look up the measured phosphorylation enrichment of PDNKPYIFKVF [PIK3AP1_Y553_E551K] for me?
0.619

Field request: phosphorylation enrichment | item: LVPPRYVRSEI [PKP2_Y194_A195V]
0.321

Which phosphorylation enrichment value is on record for KWRGQYDVAIE [BTK_Y425_K430E] ?
0.509

Please give the measured phosphorylation enrichment for this sequence: PDSVDYPKKGF [CTSK_Y121_R122P_YF]
1.15

Reported phosphorylation enrichment for SIKDKYVTVLY [KCNH2_Y611_A614V] : what is it?
0.455

Which value of phosphorylation enrichment has been reported for KTSGNYLPVTG [WDR19_Y28_A30P] in the records?
0.405

What does the data say about its phosphorylation enrichment? Entry: SVICTYSPALN [TP53_Y126_T123I]
0.523
